- assayed_target: T1, human serum albumin (human, UniProt P02768 25-609)
- T1 construct: Negative control antigen in ELISA; also called HSA
- T1 sequence (P02768 25-609 limits assumed): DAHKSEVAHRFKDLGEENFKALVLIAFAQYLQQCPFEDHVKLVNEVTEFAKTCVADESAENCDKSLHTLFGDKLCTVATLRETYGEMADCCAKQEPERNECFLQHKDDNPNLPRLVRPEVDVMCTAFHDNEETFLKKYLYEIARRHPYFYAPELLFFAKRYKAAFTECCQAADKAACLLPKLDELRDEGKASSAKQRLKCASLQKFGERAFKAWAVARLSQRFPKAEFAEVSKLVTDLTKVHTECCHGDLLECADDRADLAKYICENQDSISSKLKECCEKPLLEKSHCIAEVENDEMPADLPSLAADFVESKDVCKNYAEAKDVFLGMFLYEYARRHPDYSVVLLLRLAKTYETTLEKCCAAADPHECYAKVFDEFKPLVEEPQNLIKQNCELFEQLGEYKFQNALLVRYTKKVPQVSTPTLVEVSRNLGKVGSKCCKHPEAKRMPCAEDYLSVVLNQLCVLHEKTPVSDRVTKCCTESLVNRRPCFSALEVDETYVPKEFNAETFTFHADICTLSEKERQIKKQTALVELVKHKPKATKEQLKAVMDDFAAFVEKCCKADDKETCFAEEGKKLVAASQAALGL
- assay_info: ELISA, VNAR-hFc in Expi293 medium on coated HSA (negative control)
- Description: The clones were reformatted as bivalent VNAR-Fc by cloning the VNARs into the commercial pFUSE vector (pFUSE-hIgG1e3-Fc2). The Fc region of the protein contained CH2 and CH3 domains with the hinge that served as a flexible spacer between the two parts of the Fc-fusion protein. N-termini of the construct contained the IL2 signal sequence to allow secretion. […] The VNAR clones were expressed as Fc formats in mammalian cells in small (1 ml) scale in 96-well plates. […]

| binder | Binding [relative units] |
| --- | --- |
| G10 VNAR-hFc fusion (Fc fusion, Bivalent VNAR-Fc, VNAR N-terminal to human IgG1 Fc; Expi293; not shown: human IgG1 Fc (hinge, CH2, CH3) of vector pFUSE-hIgG1e3-Fc2) ARVDQTPQTITKETGESLTINCVLRDSNCALSSTYWYRKKSGSTNEENISKGGRYVETVNSGSKSFSLKINDLTVEDSGTYRCKVVFKLFSGRACAGEKDVYGGGTVVTVNA | 0.051 relative units |
| G6 VNAR-hFc fusion (Fc fusion, Bivalent VNAR-Fc, VNAR N-terminal to human IgG1 Fc; Expi293; not shown: human IgG1 Fc (hinge, CH2, CH3) of vector pFUSE-hIgG1e3-Fc2) ARVDQTPQTITKEEGESLTINCVLRVETRALASTSWYRKKSGSTREETISKGGRYVETVNSGSKSFSLRINDLTVEDSGTYRCNVYIRHYSEFTQAPFRDVYGDGTAVTVNA | 0.052 relative units |
| H6 VNAR-hFc fusion (Fc fusion, Bivalent VNAR-Fc, VNAR N-terminal to human IgG1 Fc; Expi293; not shown: human IgG1 Fc (hinge, CH2, CH3) of vector pFUSE-hIgG1e3-Fc2) ARVDQTPQTITKEEGESLTINCVLRTHSNALASTSWYRKKSGSTREETISKGGRYVETVNSGSKSFSLRINDLTVEDSGTYRCNVYAFLEIQPNIYHEFDVYGDGTAVTVNA | 0.06 relative units |
| A8 VNAR-hFc fusion (Fc fusion, Bivalent VNAR-Fc, VNAR N-terminal to human IgG1 Fc; Expi293; not shown: human IgG1 Fc (hinge, CH2, CH3) of vector pFUSE-hIgG1e3-Fc2) ARVDQTPQTITKEEGESLTINCVLRRNFQLASTSWYRKKSGSTREETISKGGRYVETVNSGSKSFSLRINDLTVEDSGTYRCNVYGFVEFAKNIVEFIDVYGDGTAVTVNA | 0.065 relative units |
| H8 VNAR-hFc fusion (Fc fusion, Bivalent VNAR-Fc, VNAR N-terminal to human IgG1 Fc; Expi293; not shown: human IgG1 Fc (hinge, CH2, CH3) of vector pFUSE-hIgG1e3-Fc2) ARVDQTPQTITKETGESLTINCVLRDSNCALPSTYWYRKKSGSTNEESISKGGRYVETVNSGSKSFSLRINDLVVEDSGTYRCKVGNYCIRLCYDMKFAVDVYGGGTAVTVNA | 0.059 relative units |
| E12A VNAR-hFc fusion (Fc fusion, Bivalent VNAR-Fc, VNAR N-terminal to human IgG1 Fc; Expi293; not shown: human IgG1 Fc (hinge, CH2, CH3) of vector pFUSE-hIgG1e3-Fc2) ARVDQTPQTIAREEGESVTINCVVRDSNRALASTSWCSEKYVSTREESISKGGRYVETVNSGSKSFSLRINDLTVEDSGTYRCNVYFFPSFEVDVLQTNDVYGDGTAVTVNA | 0.063 relative units |
| B12 VNAR-hFc fusion (Fc fusion, Bivalent VNAR-Fc, VNAR N-terminal to human IgG1 Fc; Expi293; not shown: human IgG1 Fc (hinge, CH2, CH3) of vector pFUSE-hIgG1e3-Fc2) ARVDQTPRSVTKETGESLTINCVLRDASYALGSTCWYRKKSGSTNEESISKGGRYVETVNSGSKSFSLRINDLTVEDGGTYRCGVARGWRTLNYLCDVRTGEWSCVWRAAACGDGTAVTVNA | 0.081 relative units |
| F11 VNAR-hFc fusion (Fc fusion, Bivalent VNAR-Fc, VNAR N-terminal to human IgG1 Fc; Expi293; not shown: human IgG1 Fc (hinge, CH2, CH3) of vector pFUSE-hIgG1e3-Fc2) ARVDQTPQTITKEEGESLTINCVLRGEFYALASTSWYRKKSGSTREETISKGGRYVETVNSGSKSFSLRINDLTVEDSGTYRCNVYGYRIFSPEVKGPNDVYGDGTAVTVNA | 0.072 relative units |
| G12 VNAR-hFc fusion (Fc fusion, Bivalent VNAR-Fc, VNAR N-terminal to human IgG1 Fc; Expi293; not shown: human IgG1 Fc (hinge, CH2, CH3) of vector pFUSE-hIgG1e3-Fc2) ARVDQTPQTITKETGESLTINCVLRDSNCALSSTYWYRKKSGSTNEALISKGGRYVETVNSGSKSFSLRINDLTVEDSGTYRCNVVQDLRDDCFFRDVYGGGTAVTVNA | 0.054 relative units |
| H7A VNAR-hFc fusion (Fc fusion, Bivalent VNAR-Fc, VNAR N-terminal to human IgG1 Fc; Expi293; not shown: human IgG1 Fc (hinge, CH2, CH3) of vector pFUSE-hIgG1e3-Fc2) PGVDQTEQTIKKEEGESVTIKCVMRVKYPALASTSRYRKKSGSREETISKGGRYVETVNYSSKSISVRINDMTVEDSGRYRCNVYEEYAVDCDALVYQDVYGDGTAVTVNA | 0.054 relative units |

Origin of values: patent US20220177597A1
